Parameter IL-8 [abs. corr.]: see the listing below.
system.tested: T1, CD27 expressed on the cell surface (HT1080_CD27 cells) (human, UniProt P26842 20-260); also: test concentration or dose not given here
T1 sequence (looked up): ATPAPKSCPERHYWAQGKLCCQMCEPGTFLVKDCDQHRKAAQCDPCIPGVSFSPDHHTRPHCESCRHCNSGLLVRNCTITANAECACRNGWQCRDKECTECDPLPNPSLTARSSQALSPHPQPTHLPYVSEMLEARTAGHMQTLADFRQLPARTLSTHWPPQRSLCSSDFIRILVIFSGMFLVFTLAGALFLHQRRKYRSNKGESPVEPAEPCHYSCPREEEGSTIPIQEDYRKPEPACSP
assay.details: cell-based or functional assay
Response body: numeric value in abs. corr., unit text excluded.

Consider the worked cases shown below.
>>> numeric_result("P018.S.10.A.A06 (antibody, V domains shown, V regions on human Ig constant parts; also called AB27_165) VH: QSVEESGGRLVTPGTPLTLTCTVSGFSLSGYHMCWVRQAPGKGLQYIGIIGSNGNTYYASWAKSRSTITRNTNENTVTLKMTSLTTEDTATYFCARSSGWGARFNLWGQGTLVTVSS VL: AQVLTQTPSSVSAAVGGTVTINCQASQSIYNDNELSWYQQKPGQPPKLLIYKASTLASGVPLRFSGSGSGTQFTLTISDVQSDVAATYYCLGGGMTPSDTTFGGGTEVVVK")
-0.13
>>> numeric_result("P018.S.08.A.A01 (antibody, V domains shown, V regions on human Ig constant parts; also called AB27_135) VH: QSVEESGGRLVTPGTPLTLTCTVSGFSLNNYDMNWVRQAPGKGLEWVGYIDTGGSAYYANWVNGRFTISKTSTTVELKMTSLTASDTATYFCARGYIHGYLWGQGTLVTVSS VL: ALVMTQTPSSVSAAVGGTVTINCQASQNVYNNLAWYQQRPGQPPELLIDSASTLASGVSSRFKGSGSGTEFTLTISDLESADAATYYCQSADWESSNFFWAFGGGTEVVVK")
0.876

# input for lookup
Value lookup for IL-8 [abs. corr.]; key = P018.S.10.A.G05 (antibody, V domains shown, V regions on human Ig constant parts; also called AB27_183) VH: QSVEESGGRLVTPGTPLTLTCTVSGFSLNNAHMCWVRQAPGKGLEWIGIIGASGSTYYASWAKGRFTISKTSTTVDLKMTSLTTEDTATYFCGRTDVGYTTANLWGQGTLVTVSS VL: DVVMTQTPASVSAAVGGTVTIKCQASQTISSYLSWYQQKPGQPPKRLIYSASTLASGVSSRFKGSGSGTQFTLTISDLESADAATYYCQAYDTTSGTDLWAFGGGTEVVVK
0.137
